TARGET OR SYSTEM: human FGFR1c + KLB receptor complex on HEK293 iLite FGF21 reporter cells (human, UniProt P11362 22-822; Q86Z14 1-1044)
Sequence (P11362 22-822, chain 1 of 2): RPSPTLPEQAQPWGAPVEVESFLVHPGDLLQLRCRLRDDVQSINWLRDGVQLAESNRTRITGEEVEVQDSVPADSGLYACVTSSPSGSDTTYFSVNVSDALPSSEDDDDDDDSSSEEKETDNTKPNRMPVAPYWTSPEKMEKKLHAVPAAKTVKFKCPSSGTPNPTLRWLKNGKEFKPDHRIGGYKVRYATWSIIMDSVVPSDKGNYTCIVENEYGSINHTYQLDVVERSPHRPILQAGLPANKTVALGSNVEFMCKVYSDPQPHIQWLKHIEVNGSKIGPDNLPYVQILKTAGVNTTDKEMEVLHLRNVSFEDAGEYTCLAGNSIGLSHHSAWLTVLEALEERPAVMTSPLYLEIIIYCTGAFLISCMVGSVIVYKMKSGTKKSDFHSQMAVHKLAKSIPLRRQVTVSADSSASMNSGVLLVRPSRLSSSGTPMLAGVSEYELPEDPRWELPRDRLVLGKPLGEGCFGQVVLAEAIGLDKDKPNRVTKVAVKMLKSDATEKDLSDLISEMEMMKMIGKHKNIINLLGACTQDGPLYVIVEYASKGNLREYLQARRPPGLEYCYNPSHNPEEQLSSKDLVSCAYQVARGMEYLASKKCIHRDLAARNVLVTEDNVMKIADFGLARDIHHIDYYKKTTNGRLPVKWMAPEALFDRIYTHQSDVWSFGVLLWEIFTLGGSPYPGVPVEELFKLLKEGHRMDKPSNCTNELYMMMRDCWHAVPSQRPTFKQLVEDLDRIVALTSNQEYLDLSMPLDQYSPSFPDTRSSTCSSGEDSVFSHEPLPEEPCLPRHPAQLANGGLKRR
Sequence (Q86Z14 whole entry, chain 2 of 2): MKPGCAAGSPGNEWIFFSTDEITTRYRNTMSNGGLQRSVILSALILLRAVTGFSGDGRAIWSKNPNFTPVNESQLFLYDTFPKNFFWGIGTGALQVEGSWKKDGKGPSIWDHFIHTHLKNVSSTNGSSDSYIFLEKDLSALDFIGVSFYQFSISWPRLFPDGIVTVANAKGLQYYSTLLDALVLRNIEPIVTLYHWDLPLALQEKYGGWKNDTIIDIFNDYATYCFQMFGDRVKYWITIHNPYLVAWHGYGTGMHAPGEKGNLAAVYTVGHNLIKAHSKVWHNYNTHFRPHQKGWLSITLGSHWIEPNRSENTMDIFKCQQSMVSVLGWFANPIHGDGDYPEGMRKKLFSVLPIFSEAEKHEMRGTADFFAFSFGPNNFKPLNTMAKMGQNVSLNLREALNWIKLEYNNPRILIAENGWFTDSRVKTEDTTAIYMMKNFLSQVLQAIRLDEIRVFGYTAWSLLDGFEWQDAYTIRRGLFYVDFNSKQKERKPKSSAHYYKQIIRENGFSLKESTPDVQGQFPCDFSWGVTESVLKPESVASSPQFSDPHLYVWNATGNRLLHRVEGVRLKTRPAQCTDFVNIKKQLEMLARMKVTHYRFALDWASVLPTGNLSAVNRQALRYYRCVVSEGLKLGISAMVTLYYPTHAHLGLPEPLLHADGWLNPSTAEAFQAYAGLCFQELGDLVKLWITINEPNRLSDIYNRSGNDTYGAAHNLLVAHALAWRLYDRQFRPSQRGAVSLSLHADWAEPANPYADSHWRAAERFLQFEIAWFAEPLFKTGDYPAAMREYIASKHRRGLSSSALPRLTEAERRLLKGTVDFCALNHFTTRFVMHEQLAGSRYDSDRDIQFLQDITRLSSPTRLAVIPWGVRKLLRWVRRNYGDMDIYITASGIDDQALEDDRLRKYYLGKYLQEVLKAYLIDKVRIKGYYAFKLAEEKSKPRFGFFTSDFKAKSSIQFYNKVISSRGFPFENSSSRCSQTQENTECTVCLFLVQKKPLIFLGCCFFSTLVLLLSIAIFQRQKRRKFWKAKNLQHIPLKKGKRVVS
ASSAY PROTOCOL: cell-based or functional assay
I'd be grateful if you could share measured Emax for these entries.
Numbers only, in %.

Solved cases below.
>>> recorded_result("Ab0296 (antibody, IgG4, V domains shown, IgG4 PE) VH: QVTLKESGPVLVKPTETLTLTCTVSGFSLNNARVGVSWIRQPPGKALEWLAHIFSNDEKSYSTSLKSRLTISKDTSKSQVVLTMTNMDPVDTATYYCARSVVTGGYYYEGMDVWGQGTTVTVSS VL: SYVLTQPPSVSVAPGQTARITCGGSNIGSESVHWYQQKPGQAPVLVVYDESDRPSGIPERFSGSNSGNTATLTISRVEAGDEADYYCQVWDGNSDHVVFGGGTKLTVLG")
1290
>>> recorded_result("Ab0326 (antibody, IgG4, V domains shown, IgG4 PE) VH: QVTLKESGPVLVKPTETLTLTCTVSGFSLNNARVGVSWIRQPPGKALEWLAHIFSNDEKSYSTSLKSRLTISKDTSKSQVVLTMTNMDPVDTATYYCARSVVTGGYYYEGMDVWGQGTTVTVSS VL: SYVLTQPPSVSVAPGQTARITCGGSNIGSESVHWYQQKPGQAPVLVVYYESDRPSGIPERFSGSNSGNTATLTISRVEAGDEADYYCQVWEGSSDHVVFGGGTKLTVLG")
1010

Query binder follows.
Hello, please tell me recorded Emax for this one: Ab0456 (antibody, IgG4, V domains shown) VH: QVTLKESGPVLVKPTETLTLTCTVSGFSLTYARVGVSWIRQPPGKALEWLAHIFSNDEKSYSTSLKSRLTISKDTSKSQVVLTMTNMDPVDTATYYCARSVVTGGYYYEGMDVWGQGTTVTVSS VL: SYVLTQPPSVSVAPGQTARITCGGSNIGSESVHWYQQKPGQAPVLVVYSESDRPSGIPERFSGSNSGNTATLTISRVEAGDEADYYCQVWEGESDHVVFGGGTKLTVLG 1080
